# System: L1210 leukemia ip in BDF1 mice, survival T/C
# assay.remarks: NCI In Vivo Anticancer Drug Screen. Data for tumor model L1210 Leukemia (intraperitoneal) in B6D2F1 (BDF1) mice
# measurement.context: endpoint: mean survival time; dose: 200.0 mg/kg/injection; schedule: Q04DX003 (ip); vehicle: saline with Tween-80; higher = longer survival
Inconclusive results and toxic doses are left out.
property: T/C

O=C(O)CCCc1ccc2c(c1)-c1ccccc1S2=O (stereo not drawn) : 109 % of control
Cc1ccc(NC(=S)NCCO)cc1 : 102 % of control
S=C(N/N=C/c1ccc(-c2ccccc2)cc1)Nc1ccccc1 : 100 % of control
O=C1OC(=C(c2ccccc2)c2ccccc2)c2ccccc21 : 96 % of control
CC1=CC(=O)N(N)C1=O : 100 % of control
C(=N\Nc1nn[nH]n1)/c1ccccc1 : 97 % of control

Give measured T/C for CC(=O)c1cc(F)ccc1O (L1210 leukemia ip in BDF1 mice, survival T/C).
97 % of control

Quote L1210 leukemia ip in BDF1 mice, survival T/C T/C for entry Cc1nc(Cl)c(C#N)nc1C .
94 % of control

Provide T/C, tested on L1210 leukemia ip in BDF1 mice, survival T/C, for COc1ccc(C(=O)P(=O)(OC)OC)cc1 .
104 % of control

Please tell me the measured T/C for COc1ccc2ccccc2n1 ; system: L1210 leukemia ip in BDF1 mice, survival T/C.
98 % of control

Tell me T/C of CC1(C)CCCC2(C)C3Cc4occc4C(C(=O)O)C3C(O)C(O)C12 (stereo not drawn) when tested on L1210 leukemia ip in BDF1 mice, survival T/C.
109 % of control

Please report T/C with L1210 leukemia ip in BDF1 mice, survival T/C for item O=c1cc(/C=N/Nc2ccc([N+](=O)[O-])cc2[N+](=O)[O-])c2cccc3c2n1CCC3 .
101 % of control

Would you please give the reported T/C of Cc1cc(=O)[nH]c2c1CCCC2 with L1210 leukemia ip in BDF1 mice, survival T/C?
97 % of control

Please report T/C with L1210 leukemia ip in BDF1 mice, survival T/C for item O=C1NC(=O)C(c2ccc(C(F)(F)F)cc2)(c2ccc(C(F)(F)F)cc2)N1 .
96 % of control

Supply T/C measured with L1210 leukemia ip in BDF1 mice, survival T/C for CN(Cc1ccccc1)C(=O)NC1CCCCC1 .
102 % of control

Give reported T/C for O=[N+]([O-])c1cccc(OCCOc2ccc(S(=O)(=O)F)cc2)c1 (L1210 leukemia ip in BDF1 mice, survival T/C)
88 % of control

For L1210 leukemia ip in BDF1 mice, survival T/C, give the measured T/C of the entry COc1ccc(C)cc1NC(=S)NC(=O)/C=C/c1ccccc1
93 % of control

Lab note: record T/C of O=C(O)CCS(=O)(=O)c1ccc(N(CCCl)CCCl)cc1 tested on L1210 leukemia ip in BDF1 mice, survival T/C.
102 % of control

Check L1210 leukemia ip in BDF1 mice, survival T/C data and give T/C for COC(=O)C1=C(C)NC(=O)NC1c1ccc(OC)cc1 (stereo not drawn) .
90 % of control

Give T/C for c1ccc([Si]2(c3ccccc3)[Si](c3ccccc3)(c3ccccc3)[Si](c3ccccc3)(c3ccccc3)[Si](c3ccccc3)(c3ccccc3)[Si](c3ccccc3)(c3ccccc3)[Si]2(c2ccccc2)c2ccccc2)cc1 tested on L1210 leukemia ip in BDF1 mice, survival T/C.
94 % of control

Give T/C for O=C(CCc1ccccc1)NC(=S)Nc1cccc([N+](=O)[O-])c1 tested on L1210 leukemia ip in BDF1 mice, survival T/C.
86 % of control

Answer briefly: T/C recorded on L1210 leukemia ip in BDF1 mice, survival T/C for N#CCN(CC#N)S(=O)(=O)c1ccccc1
94 % of control

Output reported T/C of the compound Fc1ccc(NC(=S)SCc2ccc(Cl)cc2)cc1F on L1210 leukemia ip in BDF1 mice, survival T/C.
91 % of control

Give the observed T/C of COC(=O)c1ccccc1OC(=O)Nc1ccc(SC)cc1 for L1210 leukemia ip in BDF1 mice, survival T/C.
98 % of control

Lab note: L1210 leukemia ip in BDF1 mice, survival T/C assay, enter T/C for CCCCN(CCCC)CC(O)c1cc(-c2cccc(I)c2)nc2c(Cl)cc(Cl)cc12 (stereo not drawn) here
86 % of control

Report T/C from L1210 leukemia ip in BDF1 mice, survival T/C testing of O=C(Nc1cccc(Cl)c1)c1ccc2ccccc2c1O
96 % of control
